Provenance of the data: patent US20150140169

- Tgt: T1, alpha-s1 casein from Bos taurus
- T1 chain: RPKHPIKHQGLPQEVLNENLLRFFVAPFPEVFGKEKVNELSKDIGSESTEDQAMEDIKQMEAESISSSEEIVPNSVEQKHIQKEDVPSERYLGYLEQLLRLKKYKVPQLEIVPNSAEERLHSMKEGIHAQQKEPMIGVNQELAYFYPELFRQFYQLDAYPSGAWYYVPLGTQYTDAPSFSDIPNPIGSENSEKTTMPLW
Listed proteins paired with reported αs1-I CN, 6 hours, 11° C.
Quantity Name: αs1-I CN, 6 hours, 11° C. (Volume)

camel chymosin variant #158 (L295F) (protein) GKVAREPLTSYLDSQYFGKIYIGTPPQEFTVVFDTGSSDLWVPSIYCKSNVCKNHHRFDPRKSSTFRNLGKPLSIHYGTGSMEGFLGYDTVTVSNIVDPNQTVGLSTEQPGEVFTYSEFDGILGLAYPSLASEYSVPVFDNMMDRHLVARDLFSVYMDRNGQGSMLTLGAIDPSYYTGSLHWVPVTLQQYWQFTVDSVTINGVAVACVGGCQAILDTGTSVLFGPSSDILKIQMAIGATENRYGEFDVNCGNLRSMPTVVFEINGRDYPLSPSAYTSKDQGFCTSGFQGDNNSEFWILGDVFIREYYSVFDRANNRVGLAKAI : 1.95e+07
Chymax M (recombinant camel chymosin) (protein) GKVAREPLTSYLDSQYFGKIYIGTPPQEFTVVFDTGSSDLWVPSIYCKSNVCKNHHRFDPRKSSTFRNLGKPLSIHYGTGSMEGFLGYDTVTVSNIVDPNQTVGLSTEQPGEVFTYSEFDGILGLAYPSLASEYSVPVFDNMMDRHLVARDLFSVYMDRNGQGSMLTLGAIDPSYYTGSLHWVPVTLQQYWQFTVDSVTINGVAVACVGGCQAILDTGTSVLFGPSSDILKIQMAIGATENRYGEFDVNCGNLRSMPTVVFEINGRDYPLSPSAYTSKDQGFCTSGFQGDNNSELWILGDVFIREYYSVFDRANNRVGLAKAI : 1.28e+07
